molecular target: human GluN1/GluN2B NMDA receptors (Homo sapiens (Human), UniProt Q05586+Q13224); test: Cell-based calcium flux (FLIPR) assay on cloned human NR1/NR2B ion channels expressed in mammalian cells; settings: standard assay, glutamate ~EC40, 10 μM glycine
Sequence (Q13224 27-1484, other chains not shown): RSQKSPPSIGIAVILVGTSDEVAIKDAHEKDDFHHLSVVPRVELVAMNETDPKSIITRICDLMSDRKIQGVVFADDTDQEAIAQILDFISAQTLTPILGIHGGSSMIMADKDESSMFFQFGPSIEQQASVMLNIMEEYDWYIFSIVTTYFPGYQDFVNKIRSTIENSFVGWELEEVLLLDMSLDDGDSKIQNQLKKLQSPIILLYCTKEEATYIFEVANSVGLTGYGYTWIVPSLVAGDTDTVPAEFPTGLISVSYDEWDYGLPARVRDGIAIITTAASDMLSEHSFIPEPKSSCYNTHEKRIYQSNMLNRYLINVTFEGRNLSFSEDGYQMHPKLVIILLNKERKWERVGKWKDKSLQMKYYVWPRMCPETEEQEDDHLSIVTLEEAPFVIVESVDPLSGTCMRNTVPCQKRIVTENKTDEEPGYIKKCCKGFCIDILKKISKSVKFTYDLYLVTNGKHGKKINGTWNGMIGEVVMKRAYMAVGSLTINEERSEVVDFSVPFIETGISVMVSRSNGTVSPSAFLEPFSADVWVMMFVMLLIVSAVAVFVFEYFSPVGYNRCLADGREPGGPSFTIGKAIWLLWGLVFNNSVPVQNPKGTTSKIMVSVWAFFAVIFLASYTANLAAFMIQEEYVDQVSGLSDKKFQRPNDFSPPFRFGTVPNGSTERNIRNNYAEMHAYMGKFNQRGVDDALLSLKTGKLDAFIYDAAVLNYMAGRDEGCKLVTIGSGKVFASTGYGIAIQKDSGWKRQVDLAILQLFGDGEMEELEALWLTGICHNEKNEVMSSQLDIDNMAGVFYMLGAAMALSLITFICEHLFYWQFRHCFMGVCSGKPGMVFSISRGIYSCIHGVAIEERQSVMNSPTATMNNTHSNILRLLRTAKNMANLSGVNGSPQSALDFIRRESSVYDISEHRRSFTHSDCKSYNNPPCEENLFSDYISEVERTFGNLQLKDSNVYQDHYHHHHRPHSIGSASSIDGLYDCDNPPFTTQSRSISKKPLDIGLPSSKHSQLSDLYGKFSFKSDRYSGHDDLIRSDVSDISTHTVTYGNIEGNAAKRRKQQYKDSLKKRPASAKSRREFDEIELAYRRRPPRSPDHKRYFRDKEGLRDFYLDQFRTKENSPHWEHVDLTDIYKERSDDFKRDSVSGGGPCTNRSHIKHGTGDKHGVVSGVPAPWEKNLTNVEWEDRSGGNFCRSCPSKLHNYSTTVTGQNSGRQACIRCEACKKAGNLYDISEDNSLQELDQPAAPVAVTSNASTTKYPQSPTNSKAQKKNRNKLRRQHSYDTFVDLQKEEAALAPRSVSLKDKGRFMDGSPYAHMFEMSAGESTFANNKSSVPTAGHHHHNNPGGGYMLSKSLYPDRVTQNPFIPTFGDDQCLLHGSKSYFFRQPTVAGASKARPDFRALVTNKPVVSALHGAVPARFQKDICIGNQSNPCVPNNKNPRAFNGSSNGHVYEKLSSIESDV
pIC50: −log10 of the molar value.
Measured pIC50, listed per entry.
measurement_kind: pIC50

1. CN(C)C(=O)Cn1ncc2ncc(-c3ccc(F)c(C(F)F)c3)nc21 : 7.38
2. CN(C)C(=O)Cn1ncc2ncc(-c3cc(F)c(F)c(F)c3)nc21 : 6.31
3. CN(C)C(=O)Cn1ncc2ncc(-c3ccc(F)c(OC(F)F)c3)nc21 : 7.14
4. O=C(Cn1ncc2ncc(-c3ccc(F)c(C(F)F)c3)nc21)N1CCC1 : 7.43
5. CN(C)C(=O)Cn1ncc2ncc(-c3ccc(Cl)c(F)c3)nc21 : 6.08
6. CN(C)C(=O)Cn1ncc2ncc(-c3ccc(C(F)(F)F)s3)nc21 : 6.24
7. CN(C)C(=O)Cn1ncc2ncc(-c3ccc(Cl)c(C(F)F)c3)nc21 : 7.44
